# TEST_DETAILS: NCI Yeast Anticancer Drug Screen. Data for the bub3 strain (AID 167)
# SETUP_CONDITIONS: S. cerevisiae bub3 mutant strain, at 50.0 µM (retest, dose inferred, filed as 5.0)
About 79,000 compounds went through this panel and 15% of them were active in at least one assay; those are over-represented in the sample as a whole. The source made the active and inactive calls. Cut-off read from the data, not from the text of the source: active = growth inhibition above about 70%; inactive = the rest.
Output constraint: value belongs to true (1) = active, false (0) = inactive

Field: example entries. Status: answers known.
# COMPOUND, CLASS
data = [
    ("Cc1cc(=O)oc2c3c(ccc12)OC(c1ccc(Br)cc1)CC3=O (stereo unspecified)", "false (0)"),
    ("Clc1cc(Cl)c2cc3cccc[n+]3cc2c1Cl", "false (0)"),
    ("CC(C)=CCC/C(C)=C/COC(=O)Nc1ccccc1", "false (0)"),
    ("Nc1ncc(C(=O)c2ccccc2)cc1[N+](=O)[O-]", "false (0)"),
    ("COc1ccc(/C(Cl)=C(/c2ccc(O)cc2)c2ccc(OCCN(C)C)cc2)cc1", "false (0)"),
]

Request: Hi team, can someone confirm the assay call for Cc1cccc[c]1[Sn]([Cl])([O][Sn]([Cl])([c]1ccccc1C)[c]1ccccc1C)[c]1ccccc1C ?
Response: true (1)
